Where do the numbers come from? From patent US10730870B2.

target: VHL (Homo sapiens (Human), UniProt P40337); experiment: VHL fluorescence polarization (FP) competition assay; assay type: binding; settings: 0.25% in DMSO
measurement_name: pIC50
Just so you know, pIC50 here is -log10 of the concentration in molar units; reply with that number alone.

For orientation, consider the following solved cases.
- compound_structure: "Cc1ncsc1-c1ccc(CNC(=O)[C@@H]2C[C@@H](O)CN2C(=O)[C@@H](NCCC(C)C)C2CCCC2)cc1"
  measurement_name: "pIC50"
  readout_value: 5.65
- compound_structure: "Cc1ncsc1-c1ccc(CNC(=O)[C@@H]2C[C@@H](O)CN2C(=O)[C@H](C(C)C)N2Cc3c(C#N)cccc3C2=O)cc1"
  measurement_name: "pIC50"
  readout_value: 5.69
- compound_structure: "Cc1ncsc1-c1ccc(CNC(=O)[C@@H]2C[C@@H](O)CN2C(=O)[C@@H](NC(=O)CC2CCCCC2)C(C)(C)C)cc1"
  measurement_name: "pIC50"
  readout_value: 5.42
- compound_structure: "CSC[C@@H](C(=O)N1C[C@H](O)C[C@H]1C(=O)NCc1ccc(-c2scnc2C)cc1)N1Cc2ccccc2C1=O"
  measurement_name: "pIC50"
  readout_value: 5.72
- compound_structure: "Cc1ncsc1-c1ccc(CNC(=O)[C@@H]2C[C@@H](O)CN2C(=O)[C@H](C(C)C)N2Cc3ccc(F)cc3C2=O)cc1"
  measurement_name: "pIC50"
  readout_value: 5.89

Task: Record lookup: for VHL (Homo sapiens (Human), UniProt P40337), what pIC50 belongs to CC(C)[C@@H](C(=O)N1C[C@H](O)C[C@H]1C(=O)NCc1ccc(Br)cc1)N1Cc2ccccc2C1=O ?
Result: 5.94

Task: Record lookup: for VHL (Homo sapiens (Human), UniProt P40337), what pIC50 belongs to Cc1ncsc1-c1ccc([C@H](C)NC(=O)[C@@H]2C[C@@H](O)CN2C(=O)[C@H](C(C)C)N2Cc3ccccc3C2=O)cc1 ?
Result: 6.02

Task: Record lookup: for VHL (Homo sapiens (Human), UniProt P40337), what pIC50 belongs to Cc1ncsc1-c1ccc(CNC(=O)[C@@H]2C[C@@H](O)CN2C(=O)[C@@H](NC(=O)CCC2CCCCC2)C(C)(C)C)cc1 ?
Result: 5.30

Task: Record lookup: for VHL (Homo sapiens (Human), UniProt P40337), what pIC50 belongs to Cc1ncsc1-c1ccc(CNC(=O)[C@@H]2C[C@@H](O)CN2C(=O)[C@H](C2CCCC2)N2Cc3ccccc3C2=O)cc1 ?
Result: 5.66

Task: Record lookup: for VHL (Homo sapiens (Human), UniProt P40337), what pIC50 belongs to CC(C)[C@@H](C(=O)N1C[C@H](O)C[C@H]1C(=O)N[C@@H](C)c1ccc(Br)cc1)N1Cc2ccccc2C1=O ?
Result: 5.86

Task: Record lookup: for VHL (Homo sapiens (Human), UniProt P40337), what pIC50 belongs to COc1cccc2c1C(=O)N([C@H](C(=O)N1C[C@H](O)C[C@H]1C(=O)NCc1ccc(-c3scnc3C)cc1)C(C)C)C2 ?
Result: 5.91

Task: Record lookup: for VHL (Homo sapiens (Human), UniProt P40337), what pIC50 belongs to CCc1ncsc1-c1ccc(CNC(=O)[C@@H]2C[C@@H](O)CN2C(=O)[C@H](C(C)C)N2Cc3ccccc3C2=O)cc1 ?
Result: 5.11

Task: Record lookup: for VHL (Homo sapiens (Human), UniProt P40337), what pIC50 belongs to Cc1ncsc1-c1ccc(CNC(=O)[C@@H]2C[C@@H](O)CN2C(=O)[C@H](C(C)C)N2Cc3cccc(F)c3C2=O)cc1 ?
Result: 5.52

Task: Record lookup: for VHL (Homo sapiens (Human), UniProt P40337), what pIC50 belongs to Cc1ncsc1-c1ccc(CNC(=O)[C@@H]2C[C@@H](O)CN2C(=O)[C@H](C(C)C)N2Cc3ccc(C#N)cc3C2=O)cc1 ?
Result: 5.66

Task: Record lookup: for VHL (Homo sapiens (Human), UniProt P40337), what pIC50 belongs to Cc1ncsc1-c1ccc(CNC(=O)[C@@H]2C[C@@H](O)CN2C(=O)[C@H](C(C)C)N2Cc3c(F)cccc3C2=O)cc1 ?
Result: 5.71

Task: Record lookup: for VHL (Homo sapiens (Human), UniProt P40337), what pIC50 belongs to Cc1ncsc1-c1ccc(CNC(=O)[C@@H]2C[C@@H](O)CN2C(=O)[C@@H](NC(=O)CCC(C)C)C(C)(C)C)cc1 ?
Result: 5.35

Task: Record lookup: for VHL (Homo sapiens (Human), UniProt P40337), what pIC50 belongs to C=Cc1ncsc1-c1ccc(CNC(=O)[C@@H]2C[C@@H](O)CN2C(=O)[C@H](C(C)C)N2Cc3ccccc3C2=O)cc1 ?
Result: 5.48

Task: Record lookup: for VHL (Homo sapiens (Human), UniProt P40337), what pIC50 belongs to CC(C)[C@@H](C(=O)N1C[C@H](O)C[C@H]1C(=O)NCc1ccc(-c2ccn[nH]2)cc1)N1Cc2ccccc2C1=O ?
Result: 5.14

Task: Record lookup: for VHL (Homo sapiens (Human), UniProt P40337), what pIC50 belongs to Cc1ncsc1-c1ccc(CNC(=O)[C@@H]2C[C@@H](O)CN2C(=O)[C@@H](NC(=O)C(C)(C)C)C(C)(C)C)cc1 ?
Result: 5.15
